Values from patent US11793849B2

tested on: MDRPA; experiment: MIC determination, microdilution broth method; conditions: Pseudomonas aeruginosa, read-out: MIC (single use), strain P18; EA=P. clypearia 10% ethanol extract
Test readout: MIC (µg/mL)

given_smiles=CC(C)(O/N=C(\C(=O)N[C@@H]1C(=O)N2C(C(=O)[O-])=C(C[n+]3ccccc3)CS[C@H]12)c1csc(N)n1)C(=O)O test_readout=MIC readout_value=64
given_smiles=NCC[C@H](O)C(=O)N[C@@H]1C[C@H](N)[C@@H](O[C@H]2O[C@H](CN)[C@@H](O)[C@H](O)[C@H]2O)[C@H](O)[C@H]1O[C@H]1O[C@H](CO)[C@@H](O)[C@H](N)[C@H]1O test_readout=MIC readout_value=16
given_smiles=CCN1CCN(C(=O)N[C@@H](C(=O)N[C@@H]2C(=O)N3C(C(=O)O)=C(CSc4nnnn4C)CS[C@H]23)c2ccc(O)cc2)C(=O)C1=O test_readout=MIC readout_value=256
given_smiles=C[C@H]1COc2c(N3CCN(C)CC3)c(F)cc3c(=O)c(C(=O)O)cn1c23 test_readout=MIC readout_value=4
given_smiles=C[C@@H](O)[C@H]1C(=O)N2C(C(=O)O)=C(SCCN=CN)C[C@H]12 test_readout=MIC readout_value=32

* * *

Quick reference for MIC90 among some compounds
tested on: MDRPA; experiment: MIC determination, microdilution broth method; details: single use; 20 MDRPAs; section of the 95% ethanol extract
Test readout: MIC90 (µg/mL)

given_smiles=CC(C)(O/N=C(\C(=O)N[C@@H]1C(=O)N2C(C(=O)[O-])=C(C[n+]3ccccc3)CS[C@H]12)c1csc(N)n1)C(=O)O test_readout=MIC90 readout_value=256
given_smiles=NCC[C@H](O)C(=O)N[C@@H]1C[C@H](N)[C@@H](O[C@H]2O[C@H](CN)[C@@H](O)[C@H](O)[C@H]2O)[C@H](O)[C@H]1O[C@H]1O[C@H](CO)[C@@H](O)[C@H](N)[C@H]1O test_readout=MIC90 readout_value=32
given_smiles=C[C@H]1COc2c(N3CCN(C)CC3)c(F)cc3c(=O)c(C(=O)O)cn1c23 test_readout=MIC90 readout_value=32
given_smiles=CCN1CCN(C(=O)N[C@@H](C(=O)N[C@@H]2C(=O)N3C(C(=O)O)=C(CSc4nnnn4C)CS[C@H]23)c2ccc(O)cc2)C(=O)C1=O test_readout=MIC90 readout_value=512
given_smiles=C[C@@H](O)[C@H]1C(=O)N2C(C(=O)O)=C(SCCN=CN)C[C@H]12 test_readout=MIC90 readout_value=64

* * *

Quick reference for MIC50 among some compounds
tested on: MDRPA; test: MIC determination, microdilution broth method;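 also: broth microdilution per NCCLS recommendations, testing Pithecellobium clypearia water or ethanol extracts against multidrug-resistant Pseudomonas aeruginosa, with MIC50 and MIC90 derived statistically from individual MICs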; details: MDRPAs P1-P20, single use; EA=P. clypearia 10% ethanol extract
Test readout: MIC50

given_smiles=C[C@@H](O)[C@H]1C(=O)N2C(C(=O)O)=C(SCCN=CN)C[C@H]12 tested_system=MDRPA test_readout=MIC50 readout_value="32 µg/mL"
given_smiles=C[C@H]1COc2c(N3CCN(C)CC3)c(F)cc3c(=O)c(C(=O)O)cn1c23 tested_system=MDRPA test_readout=MIC50 readout_value="4 µg/mL"
given_smiles=NCC[C@H](O)C(=O)N[C@@H]1C[C@H](N)[C@@H](O[C@H]2O[C@H](CN)[C@@H](O)[C@H](O)[C@H]2O)[C@H](O)[C@H]1O[C@H]1O[C@H](CO)[C@@H](O)[C@H](N)[C@H]1O tested_system=MDRPA test_readout=MIC50 readout_value="1 µg/mL"
given_smiles=CC(C)(O/N=C(\C(=O)N[C@@H]1C(=O)N2C(C(=O)[O-])=C(C[n+]3ccccc3)CS[C@H]12)c1csc(N)n1)C(=O)O tested_system=MDRPA test_readout=MIC50 readout_value="32 µg/mL"
given_smiles=CCN1CCN(C(=O)N[C@@H](C(=O)N[C@@H]2C(=O)N3C(C(=O)O)=C(CSc4nnnn4C)CS[C@H]23)c2ccc(O)cc2)C(=O)C1=O tested_system=MDRPA test_readout=MIC50 readout_value="64 µg/mL"
